biological target: UniProt P22455; test: Kinase assay, binding constants (Kd), kinase-tagged T7 phage, qPCR
Sequence (P22455 22-802): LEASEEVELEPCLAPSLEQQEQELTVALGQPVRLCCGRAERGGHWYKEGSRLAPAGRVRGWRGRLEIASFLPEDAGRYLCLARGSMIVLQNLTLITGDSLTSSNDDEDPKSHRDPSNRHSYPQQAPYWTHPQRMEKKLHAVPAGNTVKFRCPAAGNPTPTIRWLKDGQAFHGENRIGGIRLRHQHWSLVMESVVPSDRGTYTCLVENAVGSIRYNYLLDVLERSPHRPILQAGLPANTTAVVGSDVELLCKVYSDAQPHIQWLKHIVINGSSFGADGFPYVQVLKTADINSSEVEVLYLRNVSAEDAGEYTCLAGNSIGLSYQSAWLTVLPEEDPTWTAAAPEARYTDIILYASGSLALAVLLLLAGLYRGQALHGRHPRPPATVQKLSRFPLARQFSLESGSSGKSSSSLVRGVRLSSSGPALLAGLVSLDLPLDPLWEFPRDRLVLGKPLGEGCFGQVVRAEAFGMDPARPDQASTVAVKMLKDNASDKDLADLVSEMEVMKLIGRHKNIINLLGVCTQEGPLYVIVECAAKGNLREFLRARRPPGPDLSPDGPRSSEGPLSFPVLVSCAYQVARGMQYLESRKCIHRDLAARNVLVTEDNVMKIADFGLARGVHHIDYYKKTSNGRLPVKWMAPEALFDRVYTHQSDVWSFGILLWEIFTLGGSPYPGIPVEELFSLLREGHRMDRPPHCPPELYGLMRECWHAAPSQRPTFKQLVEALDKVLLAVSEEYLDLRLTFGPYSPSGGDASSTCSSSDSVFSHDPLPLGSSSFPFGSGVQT
Form field: Kd (one value per entry).
Endpoint label: Kd

compound=C[C@@H](Oc1ccc2[nH]nc(-c3cnn(C4CCN(S(C)(=O)=O)CC4)c3)c2c1)c1c(Cl)cncc1Cl endpoint_value="1 to 20 nM"
compound=Cc1cnnc(C)c1[C@@H](C)Oc1ccc2[nH]nc(-c3cnc(N4CC[C@H](C(C)(C)O)C4)c(C#N)c3)c2c1 endpoint_value="1 to 20 nM"
compound=Cc1ncc(Cl)c([C@@H](C)Oc2ccc3[nH]nc(-c4ccc(N5CC6(CNC6)C5)nc4)c3c2)c1Cl endpoint_value="1 to 20 nM"
compound=C[C@@H](Oc1ccc2[nH]nc(-c3cnn(C4CCN(C5COC5)CC4)c3)c2c1)c1c(Cl)cncc1Cl endpoint_value="20 to 100 nM"
compound=C[C@@H](Oc1ccc2[nH]nc(-c3cnc(N4CCC[C@H]4CO)c(C#N)c3)c2c1)c1c(Cl)cncc1Cl endpoint_value="1 to 20 nM"
compound=C[C@@H](Oc1ccc2[nH]nc(-c3cnc(N4CC5(CCNCC5)C4)nc3)c2c1)c1c(Cl)cncc1Cl endpoint_value="1 to 20 nM"
compound=C[C@@H](Oc1ccc2[nH]nc(-c3cnc(N4CCN(C(=O)N5CCN(C)CC5)CC4)c(F)c3)c2c1)c1c(Cl)cncc1Cl endpoint_value="1 to 20 nM"
compound=Cc1cc(-c2n[nH]c3ccc(O[C@H](C)c4c(Cl)cncc4Cl)cc23)cnc1N1CCOCC1 endpoint_value="1 to 20 nM"
compound=C[C@@H](Oc1ccc2[nH]nc(-c3ccc(C4CCN(C(=O)N(C)C)CC4)nc3)c2c1)c1c(Cl)cncc1Cl endpoint_value="1 to 20 nM"
compound=COc1cc2[nH]nc(-c3cnc(N4CC5(C4)CN(S(C)(=O)=O)C5)nc3)c2cc1O[C@H](C)c1c(Cl)cnc(C)c1Cl endpoint_value="1 to 20 nM"
compound="CC(Oc1ccc2[nH]nc(-c3ccc(N4CC5(C4)CN(S(C)(=O)=O)C5)nc3)c2c1)c1c(Cl)ccnc1Cl (stereo not drawn)" endpoint_value="1 to 20 nM"
compound=C[C@@H](Oc1ccc2[nH]nc(-c3cnc(N4CC(C)(N)C4)c(C#N)c3)c2c1)c1c(Cl)cncc1Cl endpoint_value="1 to 20 nM"
compound=COc1cc2[nH]nc(-c3cnc(N4CC(C)(C)C4)c(S(C)(=O)=O)c3)c2cc1O[C@H](C)c1c(Cl)cncc1Cl endpoint_value="1 to 20 nM"
compound=C[C@@H](Oc1ccc2[nH]nc(-c3cnc(N4CCC5(CCC(=O)N5)CC4)c(F)c3)c2c1)c1c(Cl)cncc1Cl endpoint_value="1 to 20 nM"
compound=C[C@@H](Oc1ccc2[nH]nc(-c3cnc(N4CCC5(CC4)CNC(=O)C5)nc3)c2c1)c1c(Cl)cncc1Cl endpoint_value="1 to 20 nM"
compound=CCOC(=O)N1CC2(C1)CN(c1ccc(-c3n[nH]c4ccc(O[C@@H](C)c5c(Cl)cnc(F)c5Cl)cc34)cn1)C2 endpoint_value="> 300 nM"
compound=C[C@@H](Oc1ccc2[nH]nc(-c3ccc(N4CCN5CCC[C@@H]5C4)nc3)c2c1)c1c(Cl)cncc1Cl endpoint_value="1 to 20 nM"
compound=C[C@@H](Oc1ccc2[nH]nc(-c3cnn(C4CCN(C5CCC5)CC4)c3)c2c1)c1c(Cl)cncc1Cl endpoint_value="20 to 100 nM"

meta.source: patent US20240109865A1
